Listed molecules paired with reported TGI
- Tested on: NCI-H460 lung
- assay-info: NCI tumour cell line growth inhibition, 48 h

molecule	result
CC(C)=NNC1=NC(C)(C)P(=O)(NNc2ncccn2)S1 (centres undefined)	> 100 µM
CC1=NOC(C)(O)/C1=N/O (centres undefined)	> 100 µM
C(=C\c1cc(CCc2nc3ccccc3[nH]2)[nH]n1)/c1ccccc1	> 100 µM
CC[C@H](C)[C@H](NC(=O)C12CC(NC)(C1)C2)C(=O)N(C)[C@H](C[C@@H](OC(C)=O)c1nc(C(=O)N[C@@H](Cc2ccccc2)C[C@H](C)C(=O)OC)cs1)C(C)C	> 25 µM
Cc1ccc2c(=O)cc(-c3ccc(Cl)cc3)[nH]c2n1	> 100 µM

// query TGI value for entry COC(=O)C1=C(C(=O)OC)C2(C)OC1C(=O)C21CC1 (centres undefined)
63.5 µM

Thanks! And COc1ccc2c(c1)C(=Nc1ccc(F)c(F)c1F)c1c-2c(Nc2ccc(F)c(F)c2F)nc2ccccc12 ?
> 100 µM

Try COc1ccc2cnc(N)c(C#Cc3cc(C(=O)Nc4ccc(CN5CCN(C)CC5)c(C(F)(F)F)c4)cnc3C)c2c1 next.
4.46 µM

Continue with Cc1cccc(-n2c(C)nc3ccc(NC(=S)Nc4ccccc4)cc3c2=O)c1
> 100 µM

Now try N#C/C(=C\c1ccc2c(c1)OCO2)n1nnc2ccccc21 .
> 100 µM

Cool, now COc1ccc2c(c1)/C(=C\c1c(-c3ccccc3)nc3n1CCS3)C(=O)N2
14.4 µM

Note, next up: O=S(=O)(O)c1ccc(-c2c3nc(c(-c4ccc(S(=O)(=O)O)cc4)c4ccc([nH]4)c(-c4ccc(S(=O)(=O)O)cc4)c4nc(c(-c5ccc(S(=O)(=O)O)cc5)c5ccc2[nH]5)C=C4)C=C3)cc1
> 100 µM

---

- Test system: UACC-62 melanoma
- assay-info: NCI tumour cell line growth inhibition, 48 h
Listing of recorded TGI by entry.
Express it in µM; write the number only.

The examples below pair each entry with its known result.
compound	target-entity	endpoint-unit	TGI
O=C1/C(=C\c2cccc(Oc3ccccc3)c2)S(=O)(=O)C(c2ccccc2)N1c1cc(Cl)ccc1Cl (configuration not stated)	UACC-62 melanoma	µM	36.7
C=C1C(=O)O[C@@H]2C[C@@H]3[C@]4(CC[C@]5(C)[C@@H]([C@H](C)CC/C=C(\C)C=O)CC[C@@]35C)C[C@]4(CCC(=O)OC)[C@H]12	UACC-62 melanoma	µM	3.06
Cc1ccc(Cl)cc1Nc1nc(C(F)(F)F)ccc1C(N)=O	UACC-62 melanoma	µM	26.6

Would you kindly share the measured TGI for C[C@]12OC(=O)[C@]3(O)CC[C@H]4[C@@H](C[C@@H](O)[C@@]5(Cl)CC=CC(=O)[C@]45C)[C@]45OCC6C(=O)O[C@@H]1C[C@@]6(C)[C@H](C4=O)[C@@]32O5 (some centres not stated) ?
4.2

Consider next the compound COc1cc(/C=N/NC(=O)c2c(Cl)c(Cl)c(Cl)c(Cl)c2-c2nc3ccccc3[nH]2)ccc1O in the same way.
32.4

How about this compound: Cn1cc(NC(=O)c2cc(NC(=O)CCCCCCCCC(=O)Nc3cc(C(=O)Nc4cc(C(=O)NCCC(N)N)n(C)c4)n(C)c3)cn2C)cc1C(=O)NCCC(=N)N
60.1

Same thing, different compound: COC(=O)c1ccc2[nH]c(O)c(C(=Nc3ccc(N(C)C(=O)CN4CCN(C)CC4)cc3)c3cccc(OC)c3)c2c1
4.52

How about this compound: C[n+]1c2ccccc2c2/c(=C\C#N)c3ccccc3n21
54.2

Source of measurements: PubChem BioAssay (NCI)
